# METHOD_SUMMARY: chemical genetic growth profiling, strain panel (AID 1159580);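 also: tested at 20 µM; growth read once vehicle control cultures reached saturation at 30 °C; 1 = growth at the plate median or of vehicle wells; lower values mean less growth of the strain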
# EXPERIMENTAL_SETUP: S. cerevisiae deletion strains, growth OD, locus YDR162C, strain NBP2, hits give low values
About 2,000 (36%) of roughly 5,500 compounds were called active. Inconclusive results (about 18%) are left out. The list shows a part of the results.
Task for the reader: assign each of the following compounds its reported normalized growth.
When you answer, write just the number.

Quick check: normalized growth of CC(=O)O[C@@H]1CC2C(C)(C)C(=O)[C@@H]3O[C@@H]3[C@]2(C)C2CC[C@]3(C)C(=CC(=O)O[C@H]3c3ccoc3)[C@@]21C (some centres not stated) ?
0.98

Return reported normalized growth; argument: "CCOc1ccc(Cc2nccc3cc(OCC)c(OCC)cc23)cc1OCC"
0.945

Fill blank: measured normalized growth of the compound CCOc1nc2cccc(C(=O)OC(C)OC(=O)OC3CCCCC3)c2n1Cc1ccc(-c2ccccc2-c2nn[nH]n2)cc1 (configuration not stated) is ____.
0.983

What does the record list as normalized growth for C[N+]1(C)C2CC[C@H]1CC(OC(=O)C(O)c1ccccc1)C2 (some centres not stated) ?
0.997

What value of normalized growth has been reported for the following compound? "CCCCC/C=C\C/C=C\C/C=C\C/C=C\CCCC(=O)O"
0.967

Record request: normalized growth value, item "Nc1ncnc2c1ncn2[C@@H]1O[C@H](CO)[C@@H](O)[C@@H]1O"
1.01

Reported normalized growth, compound "CCCc1nc(C(C)(C)O)c(C(=O)OCc2oc(=O)oc2C)n1Cc1ccc(-c2ccccc2-c2nn[nH]n2)cc1" : ____
1

Record request: normalized growth value, item CC1=C(C(=O)O)N2C(=O)[C@@H](NC(=O)[C@H](N)C3=CCC=CC3)C2SC1 (some centres not stated)
0.951

Given "CN(C)c1nc(N(C)C)nc(N(C)C)n1" , state its recorded normalized growth.
1.02

normalized growth lookup needed for COC(=O)C[C@H]1C(C)(C)C(OC(C)=O)[C@]2(O)C=C3C4CC(=O)O[C@@H](c5ccoc5)[C@]4(C)CCC3[C@@]1(C)C2=O (some centres not stated) , thanks.
1.01

Returns the measured normalized growth for the input compound. Input: "O=C(O)c1cc2cc(Cl)ccc2[nH]1"
1.05

I'd like to know its normalized growth. The compound in question is "COc1ccc2[nH]cc(CCNC(C)=O)c2c1"
1.02

Please give the measured normalized growth for this compound: "CC1=C2[C@](C)(C=CC1=O)C[C@H](O)[C@H]1[C@H](C)C(=O)O[C@]21C"
1.03

Value lookup for normalized growth; key = "CCCCC(=O)N(Cc1ccc(-c2ccccc2-c2nn[nH]n2)cc1)[C@H](C(=O)O)C(C)C"
0.982

Give its normalized growth value. Item: O=C1OC(=O)C2C3CCC(O3)C12 (configuration not stated)
0.987

# normalized growth lookup, item "N#C/C(=C\c1ccc(O)cc1)C(=O)O"
0.937

Could you share which normalized growth value was measured for CC(C)CCCC(C)C1CCC2C3CCC4CC(=O)CCC4(C)C3CCC12C (configuration not stated) ?
1.05

---

# METHOD_SUMMARY: chemical genetic growth profiling, strain panel (AID 1159580);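 also: tested at 20 µM; growth read once vehicle control cultures reached saturation at 30 °C; 1 = growth at the plate median or of vehicle wells; lower values mean less growth of the strain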
# EXPERIMENTAL_SETUP: S. cerevisiae deletion strains, growth OD, locus YCL061C, strain MRC1, hits give low values
The whole screen tested about 5,500 compounds, of which about 2,000 (36%) were called active. About 18% were inconclusive and are not listed. The list shows a part of the results.
PROPERTY_NAME: normalized growth
API doc: respond with a numeric literal and nothing else, no unit.

Give the measured normalized growth of "Nc1ncnc2nc[nH]c12" .
0.981

Reported normalized growth, compound "COc1c2occc2cc2ccc(=O)oc12" : ____
0.931

I'd like to know its normalized growth. The compound in question is "O=c1n(CCCN2CCN(c3cccc(Cl)c3)CC2)nc2ccccn12"
0.984

State the recorded normalized growth for this entry: O=C(NC(c1ccccc1)C(N=Cc1ccccc1)c1ccccc1)c1ccccc1 (stereo not drawn)
1.02

Query (compound): OC[C@@H](O)C(O[C@@H]1O[C@H](CO)[C@H](O)[C@H](O)[C@H]1O)[C@H](O)[C@@H](O)CO (stereo partly drawn) ; field requested: normalized growth
0.994

Name the recorded normalized growth for "O=c1ccc2cc(O[C@@H]3O[C@H](CO)[C@@H](O)[C@H](O)[C@H]3O)c(O)cc2o1" .
0.983

Query: normalized growth; subject: CC1=C2CCC3C(CC[C@]4(C)C(=O)CCC34)[C@@]2(C)CCC1=O (stereo partly drawn)
0.967

Using the record for C[C@]12CCC3C(CC[C@H]4C[C@@H](O)CC[C@]34C)C1CCC2=O (stereo partly drawn) , report its normalized growth.
0.961

Requested field: normalized growth. Item: "O=c1[nH]cnc2nc[nH]c12"
1.01

Would you mind telling me what normalized growth value was observed for "CCS(=O)(=O)CCn1c([N+](=O)[O-])cnc1C" ?
1.01

Which normalized growth value is on record for "CC(=O)/C(=C\N(C)C)Sc1ccc(Cl)cc1" ?
0.838

Which value of normalized growth has been reported for COc1cc(OC)c2c(c1Cl)OC1(C2=O)C(O)=CC(=O)CC1C (stereo not drawn) in the records?
1.01

Entry under review: Cc1cccc(N2C(=O)C3C4C=CC(C4)C3C2=O)n1 (stereo not drawn) . Reported normalized growth?
0.985

---

# METHOD_SUMMARY: chemical genetic growth profiling, strain panel (AID 1159580);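 also: tested at 20 µM; growth read once vehicle control cultures reached saturation at 30 °C; 1 = growth at the plate median or of vehicle wells; lower values mean less growth of the strain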
# EXPERIMENTAL_SETUP: S. cerevisiae deletion strains, growth OD, locus YER133W, strain GLC7, hits give low values
Out of some 5,500 compounds screened, about 2,000 (36%) were called active. Inconclusive results (about 18%) are left out. Some of the results follow.
Assignment: determine reported normalized growth for the given molecules.

Which normalized growth value belongs to "O=S(=O)(Nc1ccc(-n2nc(C(F)(F)F)cc2-c2cccs2)cc1)c1ccc(F)cc1" ?
0.973 (inactive)

For "FC(F)(F)c1ccc(NC(=S)Nc2ccc(C(F)(F)F)cc2Cl)c(Cl)c1" , what is its reported normalized growth?
0.933 (inactive)

Returns the measured normalized growth for the input molecule. Input: "CC(C)(C)c1cc(C(=O)/C(C#N)=N\Nc2ccc(Cl)cc2)no1"
0.326 (active)

What value of normalized growth has been reported for the following molecule? "CN(C)c1nc(=S)ss1"
0.211 (active)

normalized growth for "COc1ccc(-c2cc(NS(=O)(=O)c3cccc(F)c3)n(-c3ccc(Cl)c(Cl)c3)n2)cc1" ?
0.94 (inactive)

Looking for the measured normalized growth of "O=S(=O)(Nc1cc(-c2cccs2)nn1-c1ccc(I)cc1)c1cccc(F)c1" , can you help?
0.951 (inactive)

Which normalized growth is listed for "CSc1sc(-c2ccn[nH]2)c(-c2ccccc2)c1C#N" ?
0.987 (inactive)

Look at this molecule and give its reported normalized growth. O=C1OC(Nc2ccccc2SCc2ccccc2Cl)c2ccccc21 (stereo not given)
0.897 (inactive)

I would be grateful if you could share the reported normalized growth for "Cc1nc(C(F)(F)F)ccc1-c1nnc(SC(=O)c2ccc(Cl)cc2)o1" .
0.792 (inactive)

Request the reported normalized growth associated with "NNC(=O)COc1ccc(C2SCCS2)cc1"
0.4 (active)

If you can, please state the reported normalized growth value of "CCCCc1ccc(N=CNO)c(C)c1" .
0.41 (active)

Query (molecule): "CN(NC(=S)Nc1cc(Cl)ccc1Cl)c1ccc(C(F)(F)F)cc1[N+](=O)[O-]" ; field requested: normalized growth
0.949 (inactive)

Report normalized growth for "O=C1CSC(=Nc2cc(Cl)cc(Cl)c2)N1Cc1cccnc1" please.
0.927 (inactive)

State the recorded normalized growth for this entry: "COc1cccc(C(=O)C(C#N)=C(SC)SC)c1"
0.295 (active)

Please report the recorded normalized growth for "O=C(Nc1ccc(Cl)cc1)c1csc([N+](=O)[O-])c1" .
0.764 (inactive)

State the recorded normalized growth for this entry: CCOC(=O)C1C(c2ccc(Br)cc2)C(C(=O)OCC)C(O)(C(F)(F)F)NC1(O)C(F)(F)F (stereo not given)
0.969 (inactive)

Any idea what normalized growth was measured for "CSc1nc(Sc2n[nH]c(-c3ccccc3)n2)cc(Sc2n[nH]c(-c3ccccc3)n2)n1" ?
1 (inactive)

Requested field: normalized growth. Item: FC(F)(F)c1ccc(C2Sc3ccccc3N=C3c4ccccc4CC32)cc1 (stereo not given)
1 (inactive)

Dear colleague, I am looking for the recorded normalized growth of the following molecule: "N#C/C(=C\c1ccc(C(F)(F)F)cc1)c1ccc(O)cc1"
0.492 (active)

Fill in the blank: the reported normalized growth of "COc1ccc(/C(C#N)=C2C=C/C(=N/O)C(Cl)=C\2)cc1" is ____.
0.906 (inactive)

---

# METHOD_SUMMARY: chemical genetic growth profiling, strain panel (AID 1159580);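 also: tested at 20 µM; growth read once vehicle control cultures reached saturation at 30 °C; 1 = growth at the plate median or of vehicle wells; lower values mean less growth of the strain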
# EXPERIMENTAL_SETUP: S. cerevisiae deletion strains, growth OD, locus YOR265W, strain rbl2, hits give low values
Among all 5,500 compounds or so, about 2,000 (36%) were called active. About 18% were inconclusive and are not listed. Some of the results follow.
Threshold check on normalized growth: strictly below 1 is 1 (yes); on or above 1 is 0 (no).

# TODO verify normalized growth < 1 strictly for this molecule: "O=c1n(CCCN2CCN(c3cccc(Cl)c3)CC2)nc2ccccn12"
1 (yes)

Here's an entry: "CC(C)=CCOc1cc2oc(=O)ccc2cc1O" . Is its normalized growth below 1?
1 (yes)

Just wondering, is normalized growth of "CNC(=O)CSP(=S)(OC)OC" below 1?
0 (no)

Given the entry "CC1(C)C=Cc2c(cc3occ(-c4ccc5c(c4)OCO5)c(=O)c3c2O)O1" , would its reported normalized growth be below 1?
1 (yes)

Hello, is normalized growth of the following molecule strictly smaller than 1? "COc1c2occc2cc2ccc(=O)oc12"
1 (yes)

Input C[C@]12CCC3C(CC[C@H]4C[C@@H](O)CC[C@]34C)C1CCC2=O (some centres not stated) ; condition: normalized growth strictly below 1. Does it hold?
1 (yes)

Does the reported normalized growth of "CN1CCN(CCCN2c3ccccc3Sc3ccc(Cl)cc32)CC1" stay below 1?
1 (yes)

Take the molecule "O=C1c2ccc(O)c(O)c2C(=O)c2c(O)ccc(O)c21" and say whether its normalized growth is less than 1.
1 (yes)

Is 1 strictly greater than the molecule's reported normalized growth? molecule: "O=c1[nH]cnc2nc[nH]c12"
0 (no)

Take the molecule "O=C1c2ccccc2C(=O)c2c(O)c(O)cc(O)c21" and say whether its normalized growth is less than 1.
1 (yes)
